Target: Cytochrome P450 1A2 (Homo sapiens, UniProt P05177)
Sequence (P05177 whole entry): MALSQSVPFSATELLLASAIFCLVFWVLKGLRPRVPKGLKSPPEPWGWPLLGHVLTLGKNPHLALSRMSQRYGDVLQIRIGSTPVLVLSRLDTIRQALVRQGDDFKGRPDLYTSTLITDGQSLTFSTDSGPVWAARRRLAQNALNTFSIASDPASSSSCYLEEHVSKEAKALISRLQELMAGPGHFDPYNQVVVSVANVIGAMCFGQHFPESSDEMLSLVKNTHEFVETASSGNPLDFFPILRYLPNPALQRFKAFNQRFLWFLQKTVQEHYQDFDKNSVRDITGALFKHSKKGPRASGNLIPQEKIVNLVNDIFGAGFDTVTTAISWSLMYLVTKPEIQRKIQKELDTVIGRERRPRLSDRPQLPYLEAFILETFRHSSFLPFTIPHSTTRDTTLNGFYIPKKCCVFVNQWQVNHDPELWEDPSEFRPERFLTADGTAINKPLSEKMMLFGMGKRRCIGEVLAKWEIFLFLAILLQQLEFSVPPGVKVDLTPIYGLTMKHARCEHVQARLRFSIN
Assay: Inhibition of human CYP1A2 expressed in yeast microsomal membranes using 3-cyano-7-ethoxycoumarin as substrate measured after 10 mins by fluorescence assay
Format: ADME, cell membranes, Microsomal Membrane
The entries below come with measured IC50 values attached.

query smiles | IC50 (nM)
COc1cc(/C=C/C(=O)c2ccncc2)cc(OC)c1OC | 1090
COc1ccccc1/C=C/C(=O)c1ccncc1 | 32
O=C(/C=C/c1cccc2ccccc12)c1ccncc1 | 35
CCOc1c(OC)cc(/C=C/C(=O)c2ccncc2)cc1OC | 2580
COc1cc(/C=C/C(=O)c2ccncc2)cc(OC)c1 | 28
CCOc1cc(/C=C/C(=O)c2ccncc2)cc(OC)c1OCC | 780

----------
The entries below come with measured pIC50 values attached.
target: Cytochrome P450 2D6 (Homo sapiens, UniProt P10635); test: Inhibition of human CYP2D6 expressed in yeast microsomal membranes using 7-ethoxy-methyloxy-3-cyanocoumarin as substrate measured after 10 mins by fluorescence assay; assay type: ADME, cell membranes, Microsomal Membrane
Sequence (P10635 whole entry): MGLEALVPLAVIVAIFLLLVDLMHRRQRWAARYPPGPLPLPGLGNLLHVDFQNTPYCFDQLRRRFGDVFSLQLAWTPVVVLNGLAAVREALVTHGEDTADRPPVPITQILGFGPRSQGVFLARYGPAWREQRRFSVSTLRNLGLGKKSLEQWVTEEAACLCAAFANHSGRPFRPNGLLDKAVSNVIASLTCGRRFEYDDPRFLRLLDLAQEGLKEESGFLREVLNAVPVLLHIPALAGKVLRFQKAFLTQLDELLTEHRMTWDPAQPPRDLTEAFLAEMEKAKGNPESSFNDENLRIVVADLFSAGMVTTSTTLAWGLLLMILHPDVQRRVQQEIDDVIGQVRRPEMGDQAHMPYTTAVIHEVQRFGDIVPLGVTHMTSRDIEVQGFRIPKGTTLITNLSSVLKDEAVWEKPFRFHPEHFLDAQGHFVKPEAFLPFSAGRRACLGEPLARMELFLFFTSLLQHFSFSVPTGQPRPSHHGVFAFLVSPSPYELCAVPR
pIC50: −log10 of the molar value.

query smiles | pIC50
CCOc1cc(/C=C/C(=O)c2ccncc2)cc(OC)c1OC | 4.77
COc1ccc(/C=C/C(=O)c2ccncc2)c(OC)c1OC | 4.96
O=C(/C=C/c1cccc2ccccc12)c1ccncc1 | 4.74
CCOc1c(OC)cc(/C=C/C(=O)c2ccncc2)cc1OC | 4.92
COc1ccccc1/C=C/C(=O)c1ccncc1 | 4.96
CCOc1cc(/C=C/C(=O)c2ccncc2)cc(OCC)c1OCC | 4.85
O=C(/C=C/c1ccc2c(c1)OCO2)c1ccncc1 | 4.92

----------
biological target: Cytochrome P450 1B1 (Homo sapiens); assay: Inhibition of recombinant human CYP1B1 expressed in HEK293 cells using 7-ethoxyresorufin as substrate pretreated for 30 mins followed by substrate addition measured for 60 mins by fluorescence assay; type: cell-based
pIC50: −log10 of the molar value.
The entries below come with measured pIC50 values attached.

query smiles | pIC50
CCOc1c(OC)cc(/C=C/C(=O)c2ccncc2)cc1OC | 6.21
CCOc1cc(/C=C/C(=O)c2ccncc2)cc(OC)c1OC | 5.32
COc1cc(/C=C/C(=O)c2ccncc2)cc(OC)c1OC | 5.09
COc1cccc(/C=C/C(=O)c2ccncc2)c1 | 7.22
CCOc1cc(/C=C/C(=O)c2ccncc2)cc(OCC)c1OCC | 5.00
COc1ccc(/C=C/C(=O)c2ccncc2)c(OC)c1OC | 7.66
COc1cc(/C=C/C(=O)c2ccncc2)cc(OC)c1 | 7.51
CCOc1cc(/C=C/C(=O)c2ccncc2)cc(OC)c1OCC | 5.51
O=C(/C=C/c1ccc2c(c1)OCO2)c1ccncc1 | 5.45
COc1ccccc1/C=C/C(=O)c1ccncc1 | 7.22
COc1ccc(/C=C/C(=O)c2ccncc2)cc1 | 5.07
COc1ccc(/C=C/C(=O)c2ccncc2)cc1OC | 6.64
O=C(/C=C/c1cccc2ccccc12)c1ccncc1 | 6.12

----------
target: Cytochrome P450 2B6 (Homo sapiens); assay: Inhibition of human CYP2B6 expressed in yeast cells
Sequence (P20813 whole entry): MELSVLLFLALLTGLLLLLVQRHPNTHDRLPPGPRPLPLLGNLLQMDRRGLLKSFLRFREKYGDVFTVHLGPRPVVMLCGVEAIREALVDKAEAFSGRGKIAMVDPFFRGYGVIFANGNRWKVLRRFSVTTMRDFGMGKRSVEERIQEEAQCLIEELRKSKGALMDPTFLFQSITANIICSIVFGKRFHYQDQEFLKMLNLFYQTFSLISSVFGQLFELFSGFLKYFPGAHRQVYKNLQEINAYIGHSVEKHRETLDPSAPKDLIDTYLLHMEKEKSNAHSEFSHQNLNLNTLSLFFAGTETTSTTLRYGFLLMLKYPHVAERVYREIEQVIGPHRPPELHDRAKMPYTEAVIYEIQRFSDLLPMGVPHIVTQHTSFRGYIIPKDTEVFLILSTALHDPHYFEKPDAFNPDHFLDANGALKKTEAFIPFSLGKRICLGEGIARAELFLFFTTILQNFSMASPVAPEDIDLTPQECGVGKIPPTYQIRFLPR
measure name: IC50

query smiles | assayed system | result
COc1cc(/C=C/C(=O)c2ccncc2)cc(OC)c1OC | Cytochrome P450 2B6 (Homo sapiens) | > 10 µM

----------
Target: Cytochrome P450 1B1 (Homo sapiens, UniProt Q16678)
Sequence (Q16678 whole entry): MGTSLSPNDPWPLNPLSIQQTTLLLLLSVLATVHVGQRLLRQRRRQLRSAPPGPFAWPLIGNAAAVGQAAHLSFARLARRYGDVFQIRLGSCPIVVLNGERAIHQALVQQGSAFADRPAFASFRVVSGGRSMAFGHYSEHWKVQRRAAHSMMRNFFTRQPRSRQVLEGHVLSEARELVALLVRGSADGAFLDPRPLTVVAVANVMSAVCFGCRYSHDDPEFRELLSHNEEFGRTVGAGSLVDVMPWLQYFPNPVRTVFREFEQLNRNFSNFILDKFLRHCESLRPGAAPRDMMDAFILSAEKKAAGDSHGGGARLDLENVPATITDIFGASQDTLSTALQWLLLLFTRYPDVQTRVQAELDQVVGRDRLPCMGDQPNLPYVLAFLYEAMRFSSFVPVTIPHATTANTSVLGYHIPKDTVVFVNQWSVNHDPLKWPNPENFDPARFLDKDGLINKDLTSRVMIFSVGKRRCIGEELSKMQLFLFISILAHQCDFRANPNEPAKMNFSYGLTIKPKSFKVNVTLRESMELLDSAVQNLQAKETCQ
Test: Inhibition of human CYP1B1 expressed in yeast cells
Assay type: cell-based
pIC50: −log10 of the molar value.

query smiles | pIC50
COc1cc(/C=C/C(=O)c2ccncc2)cc(OC)c1OC | 5.21

----------
Molecular target: Cytochrome P450 2J2 (Homo sapiens, UniProt P51589)
Sequence (P51589 whole entry): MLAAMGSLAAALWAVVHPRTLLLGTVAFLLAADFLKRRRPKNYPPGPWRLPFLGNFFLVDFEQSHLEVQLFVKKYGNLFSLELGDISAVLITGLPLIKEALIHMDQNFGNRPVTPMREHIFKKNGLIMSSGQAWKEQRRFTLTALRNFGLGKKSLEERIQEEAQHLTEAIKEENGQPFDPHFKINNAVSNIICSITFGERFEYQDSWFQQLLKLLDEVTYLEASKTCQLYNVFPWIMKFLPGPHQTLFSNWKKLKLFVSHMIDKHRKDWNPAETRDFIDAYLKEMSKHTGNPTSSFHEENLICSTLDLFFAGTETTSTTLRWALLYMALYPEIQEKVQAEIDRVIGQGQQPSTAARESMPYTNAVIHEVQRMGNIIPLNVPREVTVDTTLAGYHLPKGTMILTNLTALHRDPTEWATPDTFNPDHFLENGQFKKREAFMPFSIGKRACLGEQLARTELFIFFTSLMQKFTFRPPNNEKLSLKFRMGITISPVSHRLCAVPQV
Test: Inhibition of human CYP2J2 expressed in yeast cells
measure name: IC50

query smiles | result
COc1cc(/C=C/C(=O)c2ccncc2)cc(OC)c1OC | > 20 µM

----------
The entries below come with measured IC50 values attached.
Target: Cytochrome P450 1B1 (Homo sapiens)
Sequence (Q16678 whole entry): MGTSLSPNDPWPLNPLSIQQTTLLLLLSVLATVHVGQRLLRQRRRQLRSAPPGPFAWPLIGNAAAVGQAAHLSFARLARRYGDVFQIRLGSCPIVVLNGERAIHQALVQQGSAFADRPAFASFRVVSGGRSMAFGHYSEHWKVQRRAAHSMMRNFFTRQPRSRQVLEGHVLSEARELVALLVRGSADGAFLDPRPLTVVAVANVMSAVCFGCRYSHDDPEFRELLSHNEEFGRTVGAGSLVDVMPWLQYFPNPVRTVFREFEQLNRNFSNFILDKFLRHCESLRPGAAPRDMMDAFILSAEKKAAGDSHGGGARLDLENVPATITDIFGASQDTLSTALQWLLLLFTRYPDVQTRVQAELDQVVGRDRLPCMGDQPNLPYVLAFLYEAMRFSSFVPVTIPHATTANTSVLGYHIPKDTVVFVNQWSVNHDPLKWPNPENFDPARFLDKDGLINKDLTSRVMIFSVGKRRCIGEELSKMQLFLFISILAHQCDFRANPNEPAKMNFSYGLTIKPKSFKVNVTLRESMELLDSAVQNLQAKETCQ
Assay: Inhibition of human CYP1B1 expressed in yeast microsomal membranes using 7-ethoxyresorufin as substrate measured after 10 mins by fluorescence assay
Type: cell membranes

query smiles | IC50
COc1ccccc1/C=C/C(=O)c1ccncc1 | 0.048 µM
CCOc1cc(/C=C/C(=O)c2ccncc2)cc(OC)c1OC | 3.81 µM
O=C(/C=C/c1cccc2ccccc12)c1ccncc1 | 0.65 µM
CCOc1cc(/C=C/C(=O)c2ccncc2)cc(OC)c1OCC | 2.92 µM
O=C(/C=C/c1ccc2c(c1)OCO2)c1ccncc1 | 2.11 µM
COc1cccc(/C=C/C(=O)c2ccncc2)c1 | 0.054 µM
CCOc1c(OC)cc(/C=C/C(=O)c2ccncc2)cc1OC | 0.698 µM

The reported measurements were obtained from ChEMBL document CHEMBL4177690.
